Test system: cancer cells
procedure_text: Survival rate of cancer cells after test compound is added (flow cytometry, Annexin V-FITC/PI, clinical specimen)
Type: cell-based, patient
run_conditions: Homo sapiens, 18 h, Colon adenocarcinoma; 10.0 μM; read-out: Survival rate (%) All cells (Stem cells and ordinary cells)
molecules and their reported viability at 10 µM

# molecule, viability at 10 µM
rows = [
    ("C=C1C(=O)O[C@H]2[C@H]1CCC(C)=C1CC[C@@](C)(OC(=O)CCCc3cn(CCCCCCO)nn3)[C@@H]12 [Compound 21]", "71%"),
    ("CCOC(=O)[C@@H]1CCCN1C[C@@H]1C(=O)O[C@H]2[C@H]1CCC1(CC1)[C@@H]1CCC3(CC3)[C@H]21 [Compound 29]", "87%"),
    ("C=C1C(=O)O[C@@H]2[C@@H]3[C@@H](CCC34CC4)C3(CC[C@@H]12)CC3 [Compound 26]", "91%"),
    ("CC1=C2CC[C@@](C)(O)[C@@H]2[C@H]2OC(=O)[C@@H](CN(C)C)[C@@H]2CC1 [Compound 23]", "91%"),
]

---

System: cancer cells
procedure_text: Survival rate of cancer cells after test compound is added (flow cytometry, Annexin V-FITC/PI, clinical specimen)
Assay type: cell-based, patient
run_conditions: Homo sapiens, 18 h, Breast cancer; 20.0 μM; read-out: Survival rate (%) All cells (Stem cells and ordinary cells)
molecules and their reported viability at 20 µM

# molecule, tested_system, viability at 20 µM (%)
data = [
    ("C=C1C(=O)O[C@H]2[C@H]1CC[C@@](C)(OC)C1CC[C@@](C)(O)[C@@H]12 (stereo partly shown)", "cancer cells", 87),
    ("CCOC(=O)[C@@H]1CCCN1C[C@@H]1C(=O)O[C@H]2[C@H]1CCC1(CC1)[C@@H]1CCC3(CC3)[C@H]21", "cancer cells", 81),
    ("C=C1C(=O)O[C@H]2[C@H]1CC[C@]1(C)O[C@@]13CC[C@@](C)(O)[C@H]23", "cancer cells", 58),
    ("[2H][C@@]1(CN(C)C)C(=O)O[C@@H]2[C@@H]3[C@@H](CCC34CC4)C3(CC[C@H]21)CC3", "cancer cells", 86),
    ("C=C1C(=O)O[C@@H]2[C@@H]3[C@@H](CC[C@@]3(C)O)[C@](C)(O)CC[C@@H]12", "cancer cells", 87),
]

---

Tested on: PGE2 secreted by synoviocyte
procedure_text: Content of PGE2 in culture supernatant of synoviocyte of RA model rats given test compound
Assay type: in vivo
run_conditions: rat RA model, dose 30 mg/kg.2d; normal control 8.34 ± 1.29, NaCl 32.44 ± 10.32
Description: Take Compound 1-50 prepared as per the method according to the present invention and employ the method provided in Reference to prepare model, group drugs and prepare culture supernatant of rat synoviocyte. Employ the method provided in Reference to investigate the effects of the test compounds on the synoviocyte to secrete TNF-α and PGE2. Employ the method provided in Reference to investigate the effects of the test compounds on the synoviocyte to secrete IL-1β. […]
metric: Content of PGE2 in culture supernatant of synoviocyte (x ± s) (ng/mL)

# compound, tested_system, test_result
rows = [
    ("CN(CCO)C[C@@H]1C(=O)O[C@H]2[C@H]1CCC1(CC1)[C@@H]1CCC3(CC3)[C@H]21", "PGE2 secreted by synoviocyte", 25.34),
    ("O=C1O[C@H]2[C@@H](CCC3(CC3)[C@@H]3CCC4(CC4)[C@H]23)[C@@H]1CNCc1ccccc1", "PGE2 secreted by synoviocyte", 26.64),
    ("C=C1C(=O)OC2C1CCC(C)=C1CCC(C)(OC(=O)CCC)C12 (stereo not drawn)", "PGE2 secreted by synoviocyte", 24.49),
    ("C=C1C(=O)OC2C1CCC(C)=C1CCC(C)(OC(=O)C=CC)C12 (stereo not drawn)", "PGE2 secreted by synoviocyte", 24.39),
    ("O=C1O[C@H]2[C@@H](CCC3(CC3)[C@@H]3CCC4(CC4)[C@H]23)[C@@H]1Cn1cc(CCCCO)nn1", "PGE2 secreted by synoviocyte", 22.58),
    ("O=C1O[C@H]2[C@@H](CCC3(CC3)[C@@H]3CCC4(CC4)[C@H]23)[C@@H]1CSCc1ccccc1", "PGE2 secreted by synoviocyte", 22.75),
    ("O=C1O[C@H]2[C@@H](CCC3(CC3)[C@@H]3CCC4(CC4)[C@H]23)[C@@H]1CSc1ccccc1", "PGE2 secreted by synoviocyte", 24.41),
    ("C=C1C(=O)O[C@@H]2[C@H]3C(C)=CC[C@@]34O[C@@]4(C)CC[C@@H]12", "PGE2 secreted by synoviocyte", 19.83),
    ("C=C1C(=O)O[C@H]2[C@H]1CC[C@]1(C)O[C@@]13CC[C@@](C)(O)[C@H]23", "PGE2 secreted by synoviocyte", 23.63),
    ("[2H][C@@]1(CN(C)C)C(=O)O[C@@H]2[C@@H]3[C@@H](CCC34CC4)C3(CC[C@H]21)CC3", "PGE2 secreted by synoviocyte", 24.74),
    ("C=C1C(=O)OC2C1CCC(C)=C1CCC(C)(OC(=O)C(C)C)C12 (stereo not drawn)", "PGE2 secreted by synoviocyte", 26.75),
    ("C=C1C(=O)O[C@H]2[C@H]1CCC(C)=C1CC[C@@](C)(OC(=O)CCCc3cn(CCCCCCO)nn3)[C@@H]12", "PGE2 secreted by synoviocyte", 19.59),
    ("O=C1O[C@H]2[C@@H](CCC3(CC3)[C@@H]3CCC4(CC4)[C@H]23)[C@@H]1CNCCO", "PGE2 secreted by synoviocyte", 24.61),
    ("C=C1C(=O)O[C@@H]2[C@@H]3[C@@H](CCC34CC4)C3(CC[C@@H]12)CC3", "PGE2 secreted by synoviocyte", 25.61),
    ("CCCCN(C)C[C@@H]1C(=O)O[C@H]2[C@H]1CCC1(CC1)[C@@H]1CCC3(CC3)[C@H]21", "PGE2 secreted by synoviocyte", 26.63),
    ("C=C1C(=O)OC2C1CCC(C)=C1CCC(C)(OC(=O)CC(C)C)C12 (stereo not drawn)", "PGE2 secreted by synoviocyte", 22.82),
    ("C=C1C(=O)OC2C1CCC(C)=C1CCC(C)(OC(=O)C=Cc3ccccc3)C12 (stereo not drawn)", "PGE2 secreted by synoviocyte", 28.95),
    ("CN1CCN(CC2C(=O)O[C@@H]3[C@@H]4[C@@H](CCC45CC5)C4(CC[C@@H]23)CC4)CC1 (stereo partly drawn)", "PGE2 secreted by synoviocyte", 27.94),
    ("CN(C)C[C@@H]1C(=O)O[C@H]2[C@H]1CCC1(CC1)[C@@H]1CCC3(CC3)[C@H]21.Cl", "PGE2 secreted by synoviocyte", 18.92),
    ("CCOC(=O)[C@@H]1CCCN1C[C@@H]1C(=O)O[C@H]2[C@H]1CCC1(CC1)[C@@H]1CCC3(CC3)[C@H]21", "PGE2 secreted by synoviocyte", 27.64),
    ("CC(O)c1cn(C[C@@H]2C(=O)O[C@H]3[C@H]2CCC2(CC2)[C@@H]2CCC4(CC4)[C@H]32)nn1 (stereo partly drawn)", "PGE2 secreted by synoviocyte", 23.26),
    ("C=C1C(=O)OC2C1CCC(C)=C1CCC(C)(OC(=O)C=C(C)C)C12 (stereo not drawn)", "PGE2 secreted by synoviocyte", 27.61),
    ("O=C1O[C@H]2[C@@H](CCC3(CC3)[C@@H]3CCC4(CC4)[C@H]23)[C@@H]1CN1CCOCC1", "PGE2 secreted by synoviocyte", 19.67),
    ("C=C1C(=O)O[C@H]2[C@H]1CC[C@@](C)(OC)C1CC[C@@](C)(O)[C@@H]12 (stereo partly drawn)", "PGE2 secreted by synoviocyte", 27.95),
    ("C=C1C(=O)OC2C1CCC(C)=C1CCC(C)(OC(=O)CC)C12 (stereo not drawn)", "PGE2 secreted by synoviocyte", 26.96),
    ("C=C1C(=O)OC2C1CCC(C)=C1CCC(C)(OC(=O)CCc3ccccc3)C12 (stereo not drawn)", "PGE2 secreted by synoviocyte", 27.38),
    ("C=C1C(=O)O[C@@H]2[C@@H]3[C@@H](CC[C@@]3(C)O)C(=C)CC[C@@H]12", "PGE2 secreted by synoviocyte", 26.65),
    ("C=CCCC(=O)OC1(C)CCC2=C(C)CCC3C(=C)C(=O)OC3C21 (stereo not drawn)", "PGE2 secreted by synoviocyte", 20.62),
]
